Source of measurements: ChEMBL document CHEMBL4507327

Target: Serine/threonine-protein kinase NLK (Homo sapiens, UniProt Q9UBE8)
Sequence (Q9UBE8 whole entry): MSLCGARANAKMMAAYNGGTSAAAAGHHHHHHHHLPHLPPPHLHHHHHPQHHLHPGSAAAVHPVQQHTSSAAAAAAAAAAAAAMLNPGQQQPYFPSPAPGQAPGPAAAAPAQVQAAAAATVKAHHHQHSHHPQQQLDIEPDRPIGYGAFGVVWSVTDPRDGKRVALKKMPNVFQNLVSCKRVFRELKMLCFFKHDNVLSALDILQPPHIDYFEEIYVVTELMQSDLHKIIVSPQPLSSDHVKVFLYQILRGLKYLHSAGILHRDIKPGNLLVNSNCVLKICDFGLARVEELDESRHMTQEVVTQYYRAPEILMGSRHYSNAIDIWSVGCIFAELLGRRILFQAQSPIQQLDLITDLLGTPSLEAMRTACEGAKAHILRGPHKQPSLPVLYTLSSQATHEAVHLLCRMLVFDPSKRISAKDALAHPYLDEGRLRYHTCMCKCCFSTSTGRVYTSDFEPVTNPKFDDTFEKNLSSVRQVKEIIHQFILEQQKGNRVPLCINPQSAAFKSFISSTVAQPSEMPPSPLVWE
metric-name: IC50 (µM)
Respond numerically; units are µM and should not be typed.

# compound, IC50 (µM)
data = [
    ("CN1C(=O)[C@@H](N2CCc3cn(Cc4ccccc4)nc3C2=O)COc2ccccc21", 1),
]

From here, focus on the item given below.
// lookup IC50 for CN1C(=O)[C@@H](N2CCc3cn(CC4CCS(=O)(=O)CC4)nc3C2=O)COc2ccccc21 [TP-030n] 1

* * *

Target: Glycogen synthase kinase-3 alpha (Homo sapiens)
Sequence (P49840 whole entry): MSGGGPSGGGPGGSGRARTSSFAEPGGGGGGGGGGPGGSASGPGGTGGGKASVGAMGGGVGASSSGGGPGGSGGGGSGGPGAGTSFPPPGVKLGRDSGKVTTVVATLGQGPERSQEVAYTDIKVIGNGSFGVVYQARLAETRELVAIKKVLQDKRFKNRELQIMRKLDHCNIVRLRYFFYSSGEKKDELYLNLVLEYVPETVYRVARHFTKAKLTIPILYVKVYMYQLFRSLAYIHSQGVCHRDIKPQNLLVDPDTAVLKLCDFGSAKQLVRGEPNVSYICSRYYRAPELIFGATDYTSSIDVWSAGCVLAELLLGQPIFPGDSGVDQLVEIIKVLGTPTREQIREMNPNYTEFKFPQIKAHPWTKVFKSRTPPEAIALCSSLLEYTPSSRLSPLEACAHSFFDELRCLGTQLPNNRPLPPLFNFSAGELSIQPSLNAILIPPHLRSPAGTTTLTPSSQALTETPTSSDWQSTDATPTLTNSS
metric-name: IC50 (µM)
Respond numerically; units are µM and should not be typed.

// lookup IC50 for CN1C(=O)[C@@H](N2CCc3cn(CC4CCS(=O)(=O)CC4)nc3C2=O)COc2ccccc21 [TP-030n] 1

* * *

Reported IC50 by item:
Molecular target: Casein kinase I isoform gamma-1 (Homo sapiens, UniProt Q9HCP0)
Sequence (Q9HCP0 whole entry, canonical isoform): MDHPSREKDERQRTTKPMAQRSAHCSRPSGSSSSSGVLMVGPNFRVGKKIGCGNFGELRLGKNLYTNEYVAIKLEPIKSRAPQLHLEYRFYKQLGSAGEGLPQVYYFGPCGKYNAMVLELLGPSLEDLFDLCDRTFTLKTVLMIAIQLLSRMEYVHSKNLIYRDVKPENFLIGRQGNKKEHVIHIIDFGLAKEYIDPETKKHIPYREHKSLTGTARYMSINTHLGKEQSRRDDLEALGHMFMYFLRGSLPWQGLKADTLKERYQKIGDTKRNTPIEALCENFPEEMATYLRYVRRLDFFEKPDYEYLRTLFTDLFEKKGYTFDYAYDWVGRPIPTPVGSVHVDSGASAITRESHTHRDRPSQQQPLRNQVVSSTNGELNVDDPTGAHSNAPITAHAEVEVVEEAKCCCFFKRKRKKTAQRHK
Experiment: CK1gamma1(C1G1LGI1) Takeda global kinase panel
Respond numerically; units are nM and should not be typed.

# molecule, IC50 [nM]
records = [
    ("CN1C(=O)[C@@H](N2CCc3cn(Cc4ccccc4)nc3C2=O)COc2ccccc21", 1000),
]

From here, focus on the item given below.
// lookup IC50 for CN1C(=O)[C@@H](N2CCc3cn(CC4CCS(=O)(=O)CC4)nc3C2=O)COc2ccccc21 [TP-030n] 1000

* * *

Form: system (Tyrosine-protein kinase Fer (Homo sapiens, UniProt P16591)), quantity (pIC50), values below.
Worth noting: pIC50 values are minus log10 of concentrations stated in mol/L.

# compound, pIC50
measured = [
    ("CN1C(=O)[C@@H](N2CCc3cn(Cc4ccccc4)nc3C2=O)COc2ccccc21", 6.00),
]

From here, focus on the item given below.
// lookup pIC50 for CN1C(=O)[C@@H](N2CCc3cn(CC4CCS(=O)(=O)CC4)nc3C2=O)COc2ccccc21 [TP-030n] 6.00

* * *

Biological target: Ribosomal protein S6 kinase alpha-6 (Homo sapiens)
Sequence (Q9UK32 whole entry): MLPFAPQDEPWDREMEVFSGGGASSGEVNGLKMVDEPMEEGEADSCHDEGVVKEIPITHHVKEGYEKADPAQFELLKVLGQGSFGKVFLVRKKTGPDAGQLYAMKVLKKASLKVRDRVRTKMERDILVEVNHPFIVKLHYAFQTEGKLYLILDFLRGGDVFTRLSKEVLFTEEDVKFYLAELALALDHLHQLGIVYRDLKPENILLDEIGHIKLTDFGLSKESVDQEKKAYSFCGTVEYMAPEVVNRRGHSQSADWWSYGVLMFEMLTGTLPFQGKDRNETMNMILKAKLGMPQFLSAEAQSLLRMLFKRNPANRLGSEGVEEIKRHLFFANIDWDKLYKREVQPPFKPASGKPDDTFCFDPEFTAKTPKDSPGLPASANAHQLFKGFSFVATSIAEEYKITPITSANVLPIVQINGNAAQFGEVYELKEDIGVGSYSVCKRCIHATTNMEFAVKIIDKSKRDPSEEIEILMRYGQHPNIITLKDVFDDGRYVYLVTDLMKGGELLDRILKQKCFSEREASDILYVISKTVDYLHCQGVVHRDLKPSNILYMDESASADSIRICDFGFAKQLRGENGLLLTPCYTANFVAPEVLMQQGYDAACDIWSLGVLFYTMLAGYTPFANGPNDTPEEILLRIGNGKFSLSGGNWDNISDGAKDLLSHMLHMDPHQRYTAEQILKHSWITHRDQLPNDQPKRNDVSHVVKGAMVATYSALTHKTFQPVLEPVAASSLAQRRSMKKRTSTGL
metric-name: IC50 (nM)
Respond numerically; units are nM and should not be typed.

# molecule, unit-text, IC50
data = [
    ("CN1C(=O)[C@@H](N2CCc3cn(CC4CCS(=O)(=O)CC4)nc3C2=O)COc2ccccc21 [TP-030n]", "nM", 1000),
]

From here, focus on the item given below.
// lookup IC50 for CN1C(=O)[C@@H](N2CCc3cn(Cc4ccccc4)nc3C2=O)COc2ccccc21 1000

* * *

Molecular target: G protein-coupled receptor kinase 4 (Homo sapiens)
Sequence (P32298 whole entry): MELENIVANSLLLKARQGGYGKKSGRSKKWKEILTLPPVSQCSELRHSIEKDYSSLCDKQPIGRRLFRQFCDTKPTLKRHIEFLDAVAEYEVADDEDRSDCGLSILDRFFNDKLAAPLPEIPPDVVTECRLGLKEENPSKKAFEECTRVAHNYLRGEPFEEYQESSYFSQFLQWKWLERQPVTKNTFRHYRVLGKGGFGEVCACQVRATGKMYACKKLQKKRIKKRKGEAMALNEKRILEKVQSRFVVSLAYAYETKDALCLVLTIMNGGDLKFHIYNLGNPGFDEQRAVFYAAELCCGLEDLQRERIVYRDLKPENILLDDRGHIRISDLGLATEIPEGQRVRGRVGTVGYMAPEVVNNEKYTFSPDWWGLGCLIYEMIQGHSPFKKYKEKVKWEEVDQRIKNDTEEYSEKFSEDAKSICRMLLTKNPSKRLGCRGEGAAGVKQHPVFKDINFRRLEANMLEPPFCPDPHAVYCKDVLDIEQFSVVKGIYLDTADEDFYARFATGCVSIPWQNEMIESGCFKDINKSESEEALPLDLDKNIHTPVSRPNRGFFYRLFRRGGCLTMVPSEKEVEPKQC
Reported pIC50 by item:
Worth noting: pIC50 values are minus log10 of concentrations stated in mol/L.

// lookup pIC50 for CN1C(=O)[C@@H](N2CCc3cn(CC4CCS(=O)(=O)CC4)nc3C2=O)COc2ccccc21 [TP-030n] 6.00

Also CN1C(=O)[C@@H](N2CCc3cn(Cc4ccccc4)nc3C2=O)COc2ccccc21 , if possible. 6.00

* * *

Form: system (UniProtKB P42680), quantity (IC50), values below.
Sequence (P42680 whole entry): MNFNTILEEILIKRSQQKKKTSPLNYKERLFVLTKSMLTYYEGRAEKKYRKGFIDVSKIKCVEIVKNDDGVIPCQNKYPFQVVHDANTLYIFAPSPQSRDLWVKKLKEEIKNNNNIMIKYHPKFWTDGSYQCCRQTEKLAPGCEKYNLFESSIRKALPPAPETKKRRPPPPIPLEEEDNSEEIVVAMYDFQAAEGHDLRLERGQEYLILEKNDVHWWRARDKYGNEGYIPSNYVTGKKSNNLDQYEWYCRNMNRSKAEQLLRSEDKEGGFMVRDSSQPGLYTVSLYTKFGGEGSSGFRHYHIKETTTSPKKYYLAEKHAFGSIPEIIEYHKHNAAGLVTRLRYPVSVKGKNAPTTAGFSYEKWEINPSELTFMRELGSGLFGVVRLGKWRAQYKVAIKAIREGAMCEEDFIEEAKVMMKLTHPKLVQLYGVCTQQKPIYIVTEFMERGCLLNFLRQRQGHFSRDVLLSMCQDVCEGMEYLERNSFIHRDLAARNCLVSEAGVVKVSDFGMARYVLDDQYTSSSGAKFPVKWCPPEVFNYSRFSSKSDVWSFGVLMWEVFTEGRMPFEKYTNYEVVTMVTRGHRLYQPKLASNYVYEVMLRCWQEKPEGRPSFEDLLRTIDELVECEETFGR
Respond numerically; units are nM and should not be typed.

# compound, metric-name, endpoint-result
measured = [
    ("CN1C(=O)[C@@H](N2CCc3cn(Cc4ccccc4)nc3C2=O)COc2ccccc21", "IC50", 1000),
]

From here, focus on the item given below.
// lookup IC50 for CN1C(=O)[C@@H](N2CCc3cn(CC4CCS(=O)(=O)CC4)nc3C2=O)COc2ccccc21 [TP-030n] 1000

* * *

Form: system (Tyrosine-protein kinase FRK (Homo sapiens, UniProt P42685)), quantity (IC50), values below.
Respond numerically; units are nM and should not be typed.

# compound, endpoint-result
data = [
    ("CN1C(=O)[C@@H](N2CCc3cn(Cc4ccccc4)nc3C2=O)COc2ccccc21 [TP-030-1]", 1000),
]

From here, focus on the item given below.
// lookup IC50 for CN1C(=O)[C@@H](N2CCc3cn(CC4CCS(=O)(=O)CC4)nc3C2=O)COc2ccccc21 [TP-030n] 1000

* * *

Target: 3-phosphoinositide-dependent protein kinase 1 (Homo sapiens)
Sequence (O15530 whole entry): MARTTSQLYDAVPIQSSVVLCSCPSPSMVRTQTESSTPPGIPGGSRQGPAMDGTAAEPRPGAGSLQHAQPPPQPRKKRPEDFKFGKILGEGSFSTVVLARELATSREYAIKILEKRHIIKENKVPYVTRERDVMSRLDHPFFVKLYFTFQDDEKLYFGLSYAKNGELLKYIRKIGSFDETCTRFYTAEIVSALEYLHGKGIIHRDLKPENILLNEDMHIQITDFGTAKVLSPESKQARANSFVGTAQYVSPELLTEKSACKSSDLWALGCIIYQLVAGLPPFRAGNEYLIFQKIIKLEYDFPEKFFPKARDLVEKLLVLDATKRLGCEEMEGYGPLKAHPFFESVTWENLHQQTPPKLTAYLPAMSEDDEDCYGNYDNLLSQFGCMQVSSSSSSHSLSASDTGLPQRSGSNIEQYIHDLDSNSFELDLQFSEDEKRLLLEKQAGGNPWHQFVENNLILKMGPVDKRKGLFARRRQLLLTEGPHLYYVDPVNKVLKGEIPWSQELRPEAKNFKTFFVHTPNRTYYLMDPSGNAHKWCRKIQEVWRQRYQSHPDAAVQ
Reported IC50 by item:
Respond numerically; units are µM and should not be typed.

# compound, endpoint-result
rows = [
    ("CN1C(=O)[C@@H](N2CCc3cn(Cc4ccccc4)nc3C2=O)COc2ccccc21 [TP-030-1]", 1),
]

What IC50 appears in the records for this compound with 3-phosphoinositide-dependent protein kinase 1 (Homo sapiens)? CN1C(=O)[C@@H](N2CCc3cn(CC4CCS(=O)(=O)CC4)nc3C2=O)COc2ccccc21 [TP-030n] 1

* * *

Target: Mitogen-activated protein kinase 13 (Homo sapiens, UniProt O15264)
Sequence (O15264 whole entry): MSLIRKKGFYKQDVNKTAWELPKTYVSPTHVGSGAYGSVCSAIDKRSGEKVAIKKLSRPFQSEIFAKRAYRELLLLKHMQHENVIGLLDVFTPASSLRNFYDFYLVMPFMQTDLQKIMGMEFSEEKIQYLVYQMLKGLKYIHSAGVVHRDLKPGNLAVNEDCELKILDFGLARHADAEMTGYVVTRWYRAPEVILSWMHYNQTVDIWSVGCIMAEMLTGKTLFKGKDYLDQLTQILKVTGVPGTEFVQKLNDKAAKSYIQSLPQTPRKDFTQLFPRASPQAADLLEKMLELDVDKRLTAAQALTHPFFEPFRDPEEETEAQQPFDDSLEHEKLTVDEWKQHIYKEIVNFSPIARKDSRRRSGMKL
Assay: p38delta(MP13LGP1) Takeda global kinase panel
metric-name: pIC50
Worth noting: pIC50 values are minus log10 of concentrations stated in mol/L.

# compound, pIC50
rows = [
    ("CN1C(=O)[C@@H](N2CCc3cn(Cc4ccccc4)nc3C2=O)COc2ccccc21", 6.00),
]

From here, focus on the item given below.
What pIC50 appears in the records for this compound with Mitogen-activated protein kinase 13 (Homo sapiens, UniProt O15264)? CN1C(=O)[C@@H](N2CCc3cn(CC4CCS(=O)(=O)CC4)nc3C2=O)COc2ccccc21 [TP-030n] 6.00

* * *

Reported pIC50 by item:
Molecular target: Serine/threonine-protein kinase DCLK3 (Homo sapiens, UniProt Q9C098)
Sequence (Q9C098 whole entry): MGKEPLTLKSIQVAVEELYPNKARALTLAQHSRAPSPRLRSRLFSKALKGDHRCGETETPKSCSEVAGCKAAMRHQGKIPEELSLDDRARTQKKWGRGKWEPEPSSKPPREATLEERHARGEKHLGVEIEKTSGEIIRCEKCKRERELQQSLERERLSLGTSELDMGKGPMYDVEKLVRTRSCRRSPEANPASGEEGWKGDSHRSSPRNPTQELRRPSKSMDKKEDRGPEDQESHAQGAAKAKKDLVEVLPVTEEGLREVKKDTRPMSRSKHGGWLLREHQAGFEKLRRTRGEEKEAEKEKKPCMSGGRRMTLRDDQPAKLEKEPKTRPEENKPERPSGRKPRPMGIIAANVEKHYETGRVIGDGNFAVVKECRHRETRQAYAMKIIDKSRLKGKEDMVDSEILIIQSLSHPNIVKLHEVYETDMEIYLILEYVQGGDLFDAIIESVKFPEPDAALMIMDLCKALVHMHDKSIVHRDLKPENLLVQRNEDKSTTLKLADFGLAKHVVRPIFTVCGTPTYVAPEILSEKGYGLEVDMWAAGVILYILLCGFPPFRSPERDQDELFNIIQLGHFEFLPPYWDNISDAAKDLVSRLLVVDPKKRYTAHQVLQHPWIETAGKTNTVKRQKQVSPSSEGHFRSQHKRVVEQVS
Worth noting: pIC50 values are minus log10 of concentrations stated in mol/L.

# compound, pIC50
measured = [
    ("CN1C(=O)[C@@H](N2CCc3cn(CC4CCS(=O)(=O)CC4)nc3C2=O)COc2ccccc21 [TP-030n]", 6.00),
]

From here, focus on the item given below.
// lookup pIC50 for CN1C(=O)[C@@H](N2CCc3cn(Cc4ccccc4)nc3C2=O)COc2ccccc21 6.00
